System: SF-295
Assay: NCI tumour cell line growth inhibition, 48 h
Activity calls are given as the source filed them. Rule as the data show it: active = GI50 up to about 1.1 µM and inactive = higher.
Field 'call' accepts active, inactive

Consider the worked cases shown below.
compound	group-label
CCOC(=O)c1csc(NC(=O)CCN2CCN(C)CC2)n1	inactive
CC1=C(C)C(=O)C2=C(OCCO2)C1=O	inactive
CCOC(=O)c1nc2cc(Cl)ccc2[nH]c1=O	inactive
CC(C)(C)OC(=O)n1c2ccccc2c2c(=O)nc(N3CCCCC3)sc21	inactive
NNc1ncnc2cccc(Cl)c12	inactive

Exercise: Outcome logged for CCOC(CI)O[C@@H]1C=C[C@H](OC(C)=O)C1 (some centres undefined) in this assay:
Key: inactive

Exercise: Outcome logged for N/C(=N\c1ccc(Cl)cc1)NS(=O)(=O)c1ccc(S(=O)(=O)c2ccccc2)s1 in this assay:
Key: inactive

Exercise: Outcome logged for O=C(Cc1nc2ccccc2c(=O)n1-c1ccccc1Cl)c1ccncc1 in this assay:
Key: inactive

Exercise: Outcome logged for CN1CCn2c(Br)ccc2C1=O in this assay:
Key: inactive

Exercise: Outcome logged for CCC(C)[C@H](NC(=O)N[C@H](C)c1ccccc1)C(=O)OC (some centres undefined) in this assay:
Key: inactive

Exercise: Outcome logged for Oc1cccc2c1[nH]c1c(C3=C[C@@]4(O)CC/C=C\CCCCN5CC[C@@H]3[C@]3(CC6/C=C\CCCCN6[C@H]34)C5)nccc12 (some centres undefined) in this assay:
Key: inactive

====

Tested on: UACC-62
Assay: NCI tumour cell line growth inhibition, 48 h
Active and inactive are the calls of the source. No stated cut-off is given here; in the data, active = GI50 up to about 1.1 µM and inactive = higher.
measure: GI50

// worked examples, GI50 included
molecule	GI50
Cc1nc2cc3nc4ccccc4c(O)c3cc2s1	> 100 µM (inactive)
CCCC(=O)Nc1cc(/C=C/C(=O)N2C[C@H]3C[C@@]34C2=CC(=O)c2[nH]cc(C)c24)n(C)c1	< 0.0025 µM (active)
CC(=O)NC1=C(C)C(=O)c2c(nc3n2CCC3OC(=O)c2ccccc2)C1=O (stereo unspecified)	1.92 µM (inactive)
Cc1cc2c(c(/C=N/c3ccccc3O)c1)OC1(C=C2)Oc2ccccc2C(=O)N1C (stereo unspecified)	17.8 µM (inactive)
COc1cc2c(c(OC)c1OC)-c1ccc(SC)c(=O)cc1[C@@H](NC(=O)C(F)(F)F)CC2	< 0.0102 µM (active)
O=C1c2ccc3c4ccccc4n(Cc4ccccc4)c3c2C(=O)N1c1ccccc1	17.3 µM (inactive)

Exercise: GET /values?readout=GI50&item= Cc1cc(C)nc(Sc2c([N+](=O)[O-])ncn2C)n1
Key: > 100 µM (inactive)

Exercise: GET /values?readout=GI50&item= CCCCNC1=C(C(=O)OCC)C(=O)CO1
Key: > 100 µM (inactive)

Exercise: GET /values?readout=GI50&item= CCn1c(CCCc2nc3c(=O)n(C)c(=O)n(C)c3[nH]2)nc2c1c(=O)n(C)c(=O)n2C
Key: > 100 µM (inactive)

Exercise: GET /values?readout=GI50&item= O=C(O)CCC(NC(=O)c1ccc(Oc2nc3ccccc3nc2-c2ccccc2)cc1)C(=O)O (stereo unspecified)
Key: > 100 µM (inactive)

Exercise: GET /values?readout=GI50&item= O=C(O)c1c[nH]c2c(ccc3ncccc32)c1=O
Key: > 100 µM (inactive)

Exercise: GET /values?readout=GI50&item= OCn1nc2c(C3OCCO3)cc3ccccc3n2c1=S
Key: > 100 µM (inactive)

====

Tested on: MDA-MB-231
Experiment: NCI tumour cell line growth inhibition, 48 h
The source made the active and inactive calls. No stated cut-off is given here; in the data, active = GI50 up to about 1.1 µM and inactive = higher.
# Lookup of reported GI50 keyed by entry

compound	experimental-system	result
COC(=O)/C=C(/C=C1/C(C#N)=C(N)N(c2ccc(Cl)cc2)C1(C)/C(=C\C(=O)OC)C(=O)OC)C(=O)OC (stereo not given)	MDA-MB-231	29.2 µM (inactive)

Exercise: // fetch MDA-MB-231 GI50 for Cc1ccc2[nH]c3c(c2c1)CCC/C3=N/N=C(N)N
Key: 1.39 µM (inactive)

Exercise: // fetch MDA-MB-231 GI50 for Nc1ccc(Oc2ccc(C3(c4ccc(Oc5ccc(N)c(O)c5)cc4)C4CC5CC(C4)CC3C5)cc2)cc1O
Key: 1.82 µM (inactive)

Exercise: // fetch MDA-MB-231 GI50 for N#CC(CCN1CCC(Nc2ccccc2)(c2nnnn2C2CCCCC2)CC1)(c1ccccc1)c1ccccc1
Key: > 100 µM (inactive)

Exercise: // fetch MDA-MB-231 GI50 for Cc1n[nH]c(=O)n1-n1cccc1
Key: > 100 µM (inactive)

Exercise: // fetch MDA-MB-231 GI50 for COc1c(-c2ccc(F)cc2)oc2cc(O)cc(O)c2c1=O
Key: 20 µM (inactive)

====

Test system: SK-OV-3
Experiment: NCI tumour cell line growth inhibition, 48 h
The source made the active and inactive calls. No stated cut-off is given here; in the data, active = GI50 up to about 1.1 µM and inactive = higher.
# Lookup of reported GI50 keyed by entry

Exercise: GET /values?readout=GI50&item= Cc1ccc(S(=O)(=O)C2c3nc4ccccc4cc3-c3nc4ccccc4nc32)cc1 (stereo not drawn)
Key: 0.693 µM (active)

Exercise: GET /values?readout=GI50&item= COC(=O)C1=C(C(=O)OC)C2(C)OC1C(=O)C21CC1 (stereo not drawn)
Key: > 100 µM (inactive)

Exercise: GET /values?readout=GI50&item= CC(C)C(NCc1c2ccccc2[n+]([O-])c2ccccc12)C(=O)O (stereo not drawn)
Key: > 100 µM (inactive)

Exercise: GET /values?readout=GI50&item= CN(O)C(=O)/C=C/c1ccc(OCc2cccc(Cl)c2)cc1
Key: 25.6 µM (inactive)

Exercise: GET /values?readout=GI50&item= Oc1cccc2c1[nH]c1c(C3=C[C@@]4(O)CC/C=C\CCCCN5CC[C@@H]3[C@]3(CC6/C=C\CCCCN6[C@H]34)C5)nccc12 (stereo partly drawn)
Key: 1.94 µM (inactive)

Exercise: GET /values?readout=GI50&item= CCCCCNc1nonc1N
Key: > 100 µM (inactive)

Exercise: GET /values?readout=GI50&item= COc1ccc(C(=O)/C=C/c2ccc(OCCCOc3ccc(/C=C/C(=O)c4ccc(OC)cc4)cc3)cc2)cc1
Key: > 100 µM (inactive)

Exercise: GET /values?readout=GI50&item= COC(=O)c1c2c(c3[nH]c4ccccc4c3c1C(=O)OC)C(=O)C1=C(C2=O)C2(Cl)C(Cl)C(Cl)C1(Cl)C2(Cl)Cl (stereo not drawn)
Key: 4.36 µM (inactive)

Exercise: GET /values?readout=GI50&item= O=S(=O)(c1ccc(Br)cc1)N1CCN(S(=O)(=O)c2ccc(Br)cc2)CC1
Key: > 100 µM (inactive)

Exercise: GET /values?readout=GI50&item= CSCC[C@H](NC(=O)[C@H](CC(C)C)NC(=O)[C@@H](Cc1ccccc1)NC(=O)CNC(=O)[C@@H](NC(=O)[C@H](C)NC(=O)[C@H](Cc1c[nH]c2ccccc12)NC(=O)[C@H](CCC(N)=O)NC(=O)[C@H](N)CC(N)=O)C(C)C)C(N)=O
Key: > 12.5 µM (inactive)

Exercise: GET /values?readout=GI50&item= C/C(COc1ccccc1)=N\NC(N)=S
Key: > 100 µM (inactive)

Exercise: GET /values?readout=GI50&item= C=C(/C=C/C=C(/CCC=C(C)C)COC(C)=O)[C@@H]1CC[C@]2([C@H](CCCO)/C(=C(/C)C=O)CC[C@]2(C)O)[C@@H]1O
Key: 29.1 µM (inactive)

====

# Lookup of reported GI50 keyed by entry
Test system: NCI-H23
Assay: NCI tumour cell line growth inhibition, 48 h
Calls of active or inactive are those of the source. No stated cut-off is given here; in the data, active = GI50 up to about 1.1 µM and inactive = higher.

// worked examples, GI50 included
molecule	GI50
COC(=O)C(Cc1ccccc1)NC(=O)CCCNC(=O)OCc1ccccc1 (configuration not stated)	> 100 µM (inactive)
O=[N+]([O-])c1ccc(NSc2ccccc2)cc1	45.6 µM (inactive)
CC(C)C(NCc1c2ccccc2[n+]([O-])c2ccccc12)C(=O)O (configuration not stated)	44.1 µM (inactive)
CC(C)=CCc1c2c(c3occ(-c4ccc(O)cc4)c(=O)c3c1O)CC(C(C)(C)O)O2 (configuration not stated)	18.7 µM (inactive)

Exercise: GET /values?readout=GI50&item= COc1cccc2c1OC1c3ccccc3OCC1C2 (configuration not stated)
Key: > 100 µM (inactive)

Exercise: GET /values?readout=GI50&item= CC1OC(OC2C(OC(=O)[C@]34CCC(C)(C)CC3C3=CCC5[C@@]6(C)C[C@H](O)[C@H](OC7OC(COC8OC(CO)C(O)C(O)C8O)C(O)C(O)C7O)[C@@](C)(C(=O)O)C6CC[C@@]5(C)C3(C)CC4)OCC(O)C2O)C(O)C(O)C1OC1OCC(O)C(O)C1O (some centres not stated)
Key: > 100 µM (inactive)

Exercise: GET /values?readout=GI50&item= COc1ccc2nc3ccccc3c(NCCCCN(C)CCCl)c2c1
Key: 0.0513 µM (active)
